A compilation of pKi values for Prostaglandin E2 receptor EP2 subtype (Homo sapiens) from the published literature.
pKi: −log10 of the molar value.

# compound, limitOperator, pKi
measured = [
    ("CCCCCC(O)c1ccc(N2C(=O)CC[C@@H]2C/C=C\\c2nc(C(=O)O)cs2)cc1 (stereo partly drawn)", "=", 7.37),
    ("O=C(O)c1ccc(CCC[C@@H]2[C@@H](C#Cc3cc(Cl)cc(Cl)c3)[C@H](O)C[C@H]2Cl)s1", ">", 10.10),
    ("COc1ccc(CC2=C(C(=O)NCc3ccc(C(=O)O)cc3)CCCC2)cc1", "=", 5.94),
]

###

# merged literature set: Ki with Prostaglandin E2 receptor EP2 subtype (Homo sapiens)
# label = Condition met if Ki < 20 nM else Condition not met

# compound, assignedLabel
data = [
    ("COc1cc(/C=C2\\CCc3cccc(CCc4ccc(C(=O)O)cc4)c32)cc(OC)c1", "Condition not met"),
    ("CCC1(C(O)CCC[C@H]2C(=O)CC[C@@H]2CCCc2ccc(C(=O)O)s2)CCC1 (stereo partly shown)", "Condition not met"),
    ("O=C(O)CCC/C=C\\C[C@@H]1[C@@H](COCc2cccc(C(F)(F)F)c2)[C@H](O)C[C@H]1Cl", "Condition not met"),
    ("O=C(O)c1ccc(CCC[C@@H]2[C@@H](CCC3CCCC3)[C@H](O)C[C@H]2Cl)s1", "Condition met"),
    ("COc1cc(CC2=CCc3cccc(CCc4ccc(C(=O)O)cc4)c32)cc(OC)c1", "Condition met"),
    ("O=C(O)c1ccc(CCC[C@@H]2[C@@H](C=C=Cc3ccccc3)[C@H](O)C[C@H]2Cl)s1", "Condition met"),
    ("O=C(O)c1ccc(CCC[C@@H]2[C@@H](/C=C/c3cncc(Cl)c3)[C@H](O)C[C@H]2Cl)s1", "Condition met"),
    ("CCCCCC(O)c1ccc(N2C(=O)COC2CCCc2ccc(C(=O)O)s2)cc1 (stereo not shown)", "Condition met"),
    ("CCCCCCCCC=C[C@@H]1[C@@H](CCCc2ccc(C(=O)O)s2)[C@H](Cl)C[C@H]1O", "Condition met"),
    ("CCCC(C)C(O)CCN1CCC(=O)N1CCc1ccc(C(=O)O)cc1 (stereo not shown)", "Condition not met"),
]
